Molecular target: T1, IL-1β (UniProt P01584 117-269)
T1 construct: Antigen immobilised on the Biacore chip
Experiment: Biacore, periplasmic extract
# fold difference in affinity vs original per entry
Return type: number; implicit unit fold.

Known fold difference in affinity vs original results, listed for orientation:
binder="XPA23 light chain H49Y (Fab, V domains shown) VH: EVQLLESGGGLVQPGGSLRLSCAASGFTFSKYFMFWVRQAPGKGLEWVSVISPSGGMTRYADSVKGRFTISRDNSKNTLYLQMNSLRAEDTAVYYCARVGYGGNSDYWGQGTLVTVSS VL: DIQMTQSPSSVSASVGDRLTIICRASQDINRWLAWYQQTPGNAPKLLIYSATSLQSGVPSRFSGSGSGTDFTLTINSLQPEDFATYYCQQADSFPLTFGGGTKVEIK" property="fold difference in affinity vs original" measured_number=0.52
binder="XPA23 light chain S50L (Fab, V domains shown) VH: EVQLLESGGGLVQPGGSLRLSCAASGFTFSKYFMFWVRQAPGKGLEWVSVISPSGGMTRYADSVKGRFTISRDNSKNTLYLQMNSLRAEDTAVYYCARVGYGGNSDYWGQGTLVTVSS VL: DIQMTQSPSSVSASVGDRLTIICRASQDINRWLAWYQQTPGNAPKLLIHLATSLQSGVPSRFSGSGSGTDFTLTINSLQPEDFATYYCQQADSFPLTFGGGTKVEIK" property="fold difference in affinity vs original" measured_number=0.49

fold difference in affinity vs original for XPA23 light chain T52A (Fab, V domains shown) VH: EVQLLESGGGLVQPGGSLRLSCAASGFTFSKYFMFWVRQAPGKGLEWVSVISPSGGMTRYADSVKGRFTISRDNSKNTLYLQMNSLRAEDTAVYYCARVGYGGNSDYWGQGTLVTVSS VL: DIQMTQSPSSVSASVGDRLTIICRASQDINRWLAWYQQTPGNAPKLLIHSAASLQSGVPSRFSGSGSGTDFTLTINSLQPEDFATYYCQQADSFPLTFGGGTKVEIK ? 0.66
